- System: SR leukemia
- protocol: NCI tumour cell line growth inhibition, 48 h; in the data active = GI50 below about 0.43 µM; inactive = the rest
Please reply with one of these outcomes: active, inactive

Before answering, review these 5 worked examples.
For O=C(C(=CN1CCN(C(=O)c2ccco2)C1=S)C(=O)c1ccccc1)c1ccccc1 , what call appears in the results of this test?
inactive

Field: outcome | Entry: CC12O[C@H](C[C@@H](OC(=O)CCC(=O)O)[C@H]1O)n1c3ccccc3c3c4c(c5c6ccccc6n2c5c31)C(=O)NC4=O
inactive

Answer briefly: the call reported for Cn1c(I)c(C#C[Si](C)(C)C)c(=O)[nH]c1=O in this assay.
inactive

In this assay, the call recorded for CN1CCN(c2ccc(NC3=CC(=O)c4ncncc4C3=O)cc2)CC1 was what?
active

Given Cc1ccc(-c2nc3sc(C)cn3c2/C=C2\C(=O)Nc3ccc(Cl)cc32)cc1 , state the outcome it received in this test.
inactive

More entries:
Per the assay record, what outcome was assigned to CCN1C(=O)N(CC)C2C1N=C(SC)N2/N=C/C=C/c1ccccc1OC (centres undefined) ?
active

Call for entry Fc1ccc(Nc2nc(Nc3ccc(-c4nc5ccccc5[nH]4)cc3)c3cn[nH]c3n2)cc1 :
inactive

Name the outcome recorded for CSc1ccc(C(=O)/C=C/c2ccc(Cl)cc2Cl)cc1 in the assay.
active

Hello, I am checking results. What call was entered for Cc1cc(N(CCNc2ccnc3cc(Cl)ccc23)Cc2ccc3c(c2)OCO3)nc(N2CCCC2)n1 ?
active

###

- Test system: OVCAR-4 ovarian
- protocol: NCI tumour cell line growth inhibition, 48 h
Would you please tag the item satisfied when its TGI is 30 µM or above, and not satisfied when it is below?

I'd appreciate it if you could say whether N#CC1=C(N)N(/N=C/c2ccco2)C(c2ccco2)C1(C#N)C#N (stereo unspecified) has TGI at least equal to 30 µM.
satisfied

Confirm if TGI reported for the molecule CN1CCN(c2nc(N)c(Br)c(Cl)n2)CC1 is 30 µM or above.
satisfied

Is the recorded value of TGI equal to or greater than 30 µM for this molecule? CCN(CC)c1c(C)nnn1C1OC(COC(C)=O)C(OC(C)=O)C(OC(C)=O)C1OC(C)=O (stereo unspecified)
satisfied

Please indicate if the recorded TGI for COc1ccc(N2C(=O)/C(=C/c3ccc(N(CCC#N)CCC#N)cc3)N=C2c2ccccc2)cc1 meets or exceeds 30 µM.
satisfied

Determine whether measured TGI meets or exceeds 30 µM for CCN(CC)c1ccc(C2N3CCCCC3[C@@H]3c4[nH]c5ccccc5c4CCN23)cc1 (stereo partly specified)
satisfied

Continuing:
Check the entry COc1ccc(-c2oc3cc(O)c(OC)c(O)c3c(=O)c2O)cc1 : does TGI equal or exceed 30 µM?
satisfied

Evaluate CC(=O)[CH-]C(=O)c1ccccc1.CC(=O)[CH-]C(=O)c1ccccc1.CC(=O)[CH-]C(=O)c1ccccc1.[Ga+3] : TGI at minimum 30 µM?
satisfied

Answer whether TGI of COC(=O)c1c2c(cc3c1CC1(Cc4ccccc4C1)C3)CCC2 is greater than or equal to 30 µM.
satisfied

TGI >= 30 µM for CN(C)c1ccc2[nH]c3c(C(N)=O)cc(=O)c(=O)c=3oc2c1 ?
not satisfied

Item COC(=O)C(=O)C(C(=O)OC)C(=O)C(=O)Nc1c(Cl)cc([N+](=O)[O-])cc1Cl (stereo unspecified) with TGI of 30 µM or above?
satisfied

Decide: TGI of O=c1/c(=C/c2ccccn2)sc2nc3cc4c(cc3n12)OCCO4 >= 30 µM?
satisfied

hey, is TGI for this one >= 30 µM? COc1cccc2c1C(=O)c1c(O)c3c(c(O)c1C2=O)C[C@@](O)(C(=O)CO)CC3OC1CC(NCCOCC(OC(C)=O)OC(C)=O)C(O)C(C)O1 (stereo partly specified)
satisfied
